- assay target: Rap guanine nucleotide exchange factor 3 (Homo sapiens)
- protocol summary: Confirmatory qHTS for antagonist of cAMP-regulated guanine nucleotide exchange factor 3 (EPAC1) (AID 1645880); note: nearly all actives have a fitted effect of over 55% in size
- stated conditions: EPAC1 Rap1B-BODIPY-GDP exchange, fluorescence
Results filed as inconclusive are left out. Active and inactive are the calls of the source. Calls come from the whole dose curve; as a rule, active = well fitted inhibition curve with a large enough effect; inconclusive = small, poorly fitted or top-dose-only effect; inactive = no such curve, though single readings can be large or run the other way.
The reply should name one outcome from active, inactive

Request: What outcome does the record of this test show for CC(=O)N1CCC2(CCCN(c3ccc(-c4ccccc4)cc3)C2)CC1 ?
Result: inactive

Request: // return assay outcome for CSc1ccccc1NC(=O)CN(c1ccccc1)S(=O)(=O)N(C)C
Result: inactive

Request: Outcome logged for COc1ccc(Oc2ncc3nc(C)c(=O)n(Cc4cccs4)c3n2)cc1 in this assay:
Result: inactive

Request: Please state the recorded outcome for this compound: CCN(C(=O)CN1CCN(c2ccccc2O)CC1)c1c(N)n(Cc2ccccc2)c(=O)[nH]c1=O
Result: inactive

Request: Please share the test call associated with O=C1c2cccc3c(N4CCCCC4)ccc(c23)C(=O)N1c1ccc(O)cc1 .
Result: inactive

Request: Lab log entry: O=S1(=O)C=C(Oc2ccc3ccccc3c2)c2ccccc21 — outcome as called in the assay?
Result: inactive

Request: What did the test return for COc1ccc(OC)c(C(=O)c2ccc(Cl)cc2)c1 ?
Result: inactive

Request: What did this assay record as the result for CC(OC(=O)CC1CCCCC1)C(=O)Nc1ccc(S(N)(=O)=O)cc1 (stereo not given) ?
Result: inactive

Request: Which result was noted for this compound in the test: CC[n+]1c(/C=C/C=C/N(C(C)=O)c2ccccc2)sc2ccccc21
Result: active

Request: Test call for this compound, please: O=C(O)c1cnn(-c2nc(-c3ccc(Cl)c(Cl)c3)cs2)c1C(F)(F)F
Result: active

====

- assay target: Rap guanine nucleotide exchange factor 3 (Homo sapiens) (UniProt O95398)
- Sequence (O95398 whole entry, looked up): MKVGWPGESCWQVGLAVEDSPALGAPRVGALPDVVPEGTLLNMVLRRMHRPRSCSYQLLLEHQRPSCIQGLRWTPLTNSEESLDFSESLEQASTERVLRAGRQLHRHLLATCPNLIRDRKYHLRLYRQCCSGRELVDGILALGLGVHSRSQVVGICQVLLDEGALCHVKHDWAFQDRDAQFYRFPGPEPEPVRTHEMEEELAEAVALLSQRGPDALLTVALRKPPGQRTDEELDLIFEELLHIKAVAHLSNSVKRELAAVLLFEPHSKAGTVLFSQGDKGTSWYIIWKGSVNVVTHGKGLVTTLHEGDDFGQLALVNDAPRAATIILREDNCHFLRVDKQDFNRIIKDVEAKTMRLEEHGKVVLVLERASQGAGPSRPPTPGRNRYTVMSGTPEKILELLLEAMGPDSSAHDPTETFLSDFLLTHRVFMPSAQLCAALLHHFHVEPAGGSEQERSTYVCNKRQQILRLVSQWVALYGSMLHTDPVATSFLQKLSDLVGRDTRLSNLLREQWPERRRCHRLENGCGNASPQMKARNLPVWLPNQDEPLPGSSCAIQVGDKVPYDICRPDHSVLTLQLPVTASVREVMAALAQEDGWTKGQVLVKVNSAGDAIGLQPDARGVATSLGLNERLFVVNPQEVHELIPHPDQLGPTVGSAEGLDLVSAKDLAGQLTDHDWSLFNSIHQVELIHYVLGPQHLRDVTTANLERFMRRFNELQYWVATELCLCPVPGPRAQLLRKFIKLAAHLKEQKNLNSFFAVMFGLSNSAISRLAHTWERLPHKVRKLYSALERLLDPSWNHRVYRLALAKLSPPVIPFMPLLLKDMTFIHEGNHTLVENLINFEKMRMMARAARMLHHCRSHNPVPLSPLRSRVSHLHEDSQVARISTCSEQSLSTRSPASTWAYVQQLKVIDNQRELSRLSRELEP
- protocol summary: Counterscreen qHTS for antagonist of cAMP-regulated guanine nucleotide exchange factor 3 (EPAC1) (AID 1645888);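 note: fluorescence loss as bound BODIPY-GDP is released from Rap1B; % of control where 0% means no effect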
- stated conditions: Rap1B-BODIPY-GDP nucleotide exchange, fluorescence; series mostly up to 154 µM
Inconclusive results are not listed. The source made the active and inactive calls. The call rests on the fitted dose curve; in most records, active means well fitted inhibition curve with a large enough effect; inconclusive means small, poorly fitted or top-dose-only effect; inactive means no such curve, though single readings can be large or run the other way.
reported property: activity change, negative = inhibition

# molecule, activity change, negative = inhibition
data = [
    ("CN(CCC#N)C(=O)COC(=O)c1c2c(nc3ccccc13)/C(=C\\c1ccco1)CC2", "inactive"),
    ("Cc1cccc(N2CCN(S(=O)(=O)c3ccc4c(c3)CCN4C(=O)CCC(=O)O)CC2C)c1 (stereo unspecified)", "inactive"),
    ("CCC(C)n1c(=N)c(C#N)cc2c(=O)n3ccccc3nc21 (stereo unspecified)", "-20.2% [at 30.8 µM] (inactive)"),
    ("COc1ccc(C2c3ccsc3CCN2C(C)=O)cc1 (stereo unspecified)", "inactive"),
    ("COC(=O)c1ccc2nc(-c3ccco3)c(Cc3ccccc3)n2c1", "-11.9% [at 30.8 µM] (inactive)"),
]

Request: Data request, read-out activity change, negative = inhibition, for COc1cc2c(cc1OC)C(COc1cc(C)cc(C)c1)N(C(C)=O)CC2 (stereo unspecified)
Result: -10.1% [at 30.8 µM] (inactive)

Request: Can you share its activity change, negative = inhibition? I mean this molecule: COc1ccc2c(c1)Cc1sc(NC(=O)c3cccc(C)c3)nc1-2
Result: inactive

Request: # query: activity change, negative = inhibition of entry O=C1NC(=O)/C(=C/c2ccc(-c3cc(C(=O)O)ccc3Cl)o2)S1
Result: 4.91% [at 30.8 µM] (inactive)

Request: What activity change, negative = inhibition value was documented for this molecule, Oc1ccc(/C=N/Nc2ncnc3nc[nH]c23)cc1 ?
Result: 4.9% [at 30.8 µM] (inactive)

Request: Entry under review: Cc1cc2c(N)cccc2nn1 . Reported activity change, negative = inhibition?
Result: inactive

Request: Quick check: activity change, negative = inhibition of Cc1cc(S(=O)(=O)N2CCN(CC(=O)N(C)Cc3ccccc3)CC2)ccc1Br ?
Result: inactive

====

- assay target: Rap guanine nucleotide exchange factor 3 (Homo sapiens) (UniProt O95398)
- protocol summary: Confirmatory qHTS for antagonist of cAMP-regulated guanine nucleotide exchange factor 3 (EPAC1) (AID 1645880); note: nearly all actives have a fitted effect of over 55% in size
- stated conditions: EPAC1 Rap1B-BODIPY-GDP exchange, fluorescence
Results filed as inconclusive are left out. Activity calls are given as the source filed them. Calls come from the whole dose curve; as a rule, active = well fitted inhibition curve with a large enough effect; inconclusive = small, poorly fitted or top-dose-only effect; inactive = no such curve, though single readings can be large or run the other way.
Select the matching outcome among y for active, n for inactive

Request: Hello, I am checking results. What call was entered for CCCC(CNC(C)=O)(C1=CCCCC1)c1ccccc1 (stereo unspecified) ?
Result: n

Request: Please let me know the test result on file for CNC(=O)c1csc(Cc2c(Cl)sc3ccc(Cl)cc23)n1 .
Result: n

Request: Per the assay record, what outcome was assigned to CNC(=O)CSc1nc2ccccc2c(=O)n1-c1cc(OC)ccc1OC ?
Result: n

Request: // return assay outcome for O=c1c(-c2ccc(F)cc2)[n+]([O-])c2ccccc2n1OCc1ccccn1
Result: n

Request: What is the recorded call for this compound in the test? c1ccc(Oc2nc(-c3cccnc3)nc3ccccc23)cc1
Result: n

Request: Test call, this compound: O=C(c1ccco1)N(CCC(c1ccccc1)c1ccco1)Cc1ccccc1 (stereo unspecified)
Result: y

Request: Name the outcome recorded for Cc1ccc(-c2c3c(=O)n(C)c(=O)n(C)c3c3c(C(F)(F)F)nc4ccccc4n23)cc1 in the assay.
Result: n

Request: # lookup: test call for O=C1C(=Cc2ccco2)CCC1=Cc1ccco1
Result: n

Request: Record request — test call for CC(=O)NNC(=O)c1sc(=S)n2c1[nH]c(=O)c1sccc12
Result: y

Request: Given CCN(CC(=O)Nc1ccccc1C(=O)NC1CC1)Cc1cccs1 , state the outcome it received in this test.
Result: n

Request: Called result for COc1ccccc1C1CC(=O)Oc2cc(C)c(Cl)c(C)c21 (stereo unspecified)
Result: n

====

- assay target: Rap guanine nucleotide exchange factor 3 (Homo sapiens)
- protocol summary: Counterscreen qHTS for antagonist of cAMP-regulated guanine nucleotide exchange factor 3 (EPAC1) (AID 1645888);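 note: fluorescence loss as bound BODIPY-GDP is released from Rap1B; % of control where 0% means no effect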
- stated conditions: Rap1B-BODIPY-GDP nucleotide exchange, fluorescence; series mostly up to 154 µM
Results filed as inconclusive are left out. Activity calls are given as the source filed them. Calls follow the shape of the dose curve; as a rule, active = well fitted inhibition curve with a large enough effect; inconclusive = small, poorly fitted or top-dose-only effect; inactive = no such curve, though single readings can be large or run the other way.
reported property: activity change, negative = inhibition

# molecule, activity change, negative = inhibition
rows = [
    ("N=C(N)c1ccc(N=Nc2c(O)ccc3c2[nH]c2ccccc23)cc1", "-5.36% [at 30.8 µM] (inactive)"),
    ("CCC(C)(C)NC(=O)C(c1ccccn1)N(C(=O)c1csnn1)C1CCCCC1 (stereo unspecified)", "inactive"),
    ("O=C(NC1(O)C(=O)c2ccccc2C1=O)c1ccc(C(F)(F)F)cc1", "inactive"),
    ("Nc1nnc(CC(=O)N/N=C/c2cc([N+](=O)[O-])cc(Br)c2O)s1", "inactive"),
    ("O=C(O)c1cnn(-c2nc(-c3ccc(Cl)c(Cl)c3)cs2)c1C(F)(F)F", "inactive"),
]

Request: Would you mind telling me what activity change, negative = inhibition value was observed for COc1ccc(-n2c(NC(=O)c3ccco3)c(C#N)c3nc4ccccc4nc32)cc1 ?
Result: inactive

Request: Need activity change, negative = inhibition, item O=C1COc2ccc(C(=O)COC(=O)c3ccc4ccccc4n3)cc2N1
Result: inactive

Request: Any idea what activity change, negative = inhibition was measured for CCc1ccc2c(c1)NC(=O)C2(C)Cc1ccccc1OC (stereo unspecified) ?
Result: inactive

Request: Value lookup for activity change, negative = inhibition; key = Brc1ccc(CSc2nccn2-c2ccccc2)cc1
Result: inactive

Request: Report activity change, negative = inhibition for CC(=O)Nc1ccc(NC(=O)CNC(=O)COc2ccccc2)cc1 please.
Result: 1.2% [at 30.8 µM] (inactive)

Request: What measured activity change, negative = inhibition goes with COc1ccccc1Oc1nc(-c2cccnc2)nc2ccccc12 ?
Result: inactive

====

- assay target: Dual specificity protein kinase CLK4 (Homo sapiens)
- protocol summary: qHTS Assay for Inhibitors of CDC-like Kinase 4 (Kinase-Glo Assay) (AID 1770); note: nearly all actives have a fitted effect of over 65% in size; note: potency is the fitted concentration of half-maximal effect
- stated conditions: recombinant Clk4, Kinase-Glo ATP depletion luminescence; series mostly up to 66.7 µM
Records with an inconclusive call do not appear. Active and inactive are the calls of the source. The call rests on the fitted dose curve; in most records, active means well fitted inhibition curve with a large enough effect; inconclusive means small, poorly fitted or top-dose-only effect; inactive means flat fitted curve, though single readings scatter.
reported property: Potency

# molecular string, assay target, Potency
measured = [
    ("COc1ccccc1CNc1ccnc(-c2cccc(NS(C)(=O)=O)c2)n1", "Dual specificity protein kinase CLK4 (Homo sapiens)", "28.2 µM (active)"),
    ("COc1cccc(-c2ccc3ncnc(NCc4ccc(OC)cc4OC)c3c2)c1", "Dual specificity protein kinase CLK4 (Homo sapiens)", "35.5 µM (active)"),
    ("COc1ccc2[nH]cc(CCNc3ncnc4ccc(-c5ccoc5)cc34)c2c1", "Dual specificity protein kinase CLK4 (Homo sapiens)", "0.794 µM (active)"),
    ("COc1ccc(Oc2ncc3nc(-c4cc(F)cc(F)c4)c(=O)n(C4CC4)c3n2)cc1", "Dual specificity protein kinase CLK4 (Homo sapiens)", "inactive"),
    ("COc1ccc(-c2nc3cnc(Oc4cccc(Cl)c4)nc3n(C[C@H]3CCCO3)c2=O)cc1", "Dual specificity protein kinase CLK4 (Homo sapiens)", "inactive"),
]

Request: I would be grateful if you could share the reported Potency for CN(C)c1ccc(-c2cc(N(C)Cc3ccco3)ncn2)cc1 .
Result: 25.1 µM (active)

Request: Any idea what its Potency is? The compound is COCCn1c(=O)c(-c2cccc(C#N)c2)nc2cnc(Oc3cccc(Cl)c3)nc21
Result: inactive

Request: Look at this compound and give its reported Potency. COc1ccc(-c2nc3cnc(N4CCN(C)CC4)nc3n(CCc3ccccc3)c2=O)cc1
Result: inactive

Request: // query Potency value for entry CN(C)c1ccc(-c2nccc(Nc3ccc(F)cc3)n2)cc1
Result: 17.8 µM (active)

Request: Give the measured Potency of CN(C)C(=O)c1ccc(-c2cc(NCc3ccccc3)ncn2)cc1 .
Result: 25.1 µM (active)
